Provenance of the data: the RNAGym collection of RNA variant scans (doi:10.1038/nmeth.2970)

B1: NELF-E aptamer (parent)
chain: CCCAACGACUGCCGAGCGAGAUUACGCUUGAGCGCCCCACUGAGGAUGCCCACGGGCGAUUGGGGCACGG

- Variants of: B1
- protocol: HiTS-RAP
- conditionNotes: with NELF-E (Drosophila)
pKd: −log10 of the molar value.
Label scheme for pKd: lower than 8 is 0, 8 and above is 1.

mutantDesignation	classification
A4G C12U	1

Now look at this one.
Does C17G U47G have a reported pKd of at least 8? 1
